B1: HDV Ribozyme (parent)
chain: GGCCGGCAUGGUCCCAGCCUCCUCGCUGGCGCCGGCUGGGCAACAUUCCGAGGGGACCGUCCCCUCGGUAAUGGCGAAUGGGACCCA

- Variants of: B1
- assay.details: self-cleavage, relative activity (ratio to wild type); higher = more cleavage; co-transcriptional
# maps each entry to its self-cleavage
The answer should be written as a number, with no unit following it.

>  <var>
C32A C33U

>  <self-cleavage>
0.0779

$$$$
>  <var>
C33U G82U

>  <self-cleavage>
0.266

$$$$
>  <var>
G52U A71C

>  <self-cleavage>
0.745

$$$$
>  <var>
C14A G25C

>  <self-cleavage>
0.201

$$$$
>  <var>
U46G A78U

>  <self-cleavage>
0.0573

$$$$

Given the variant C14A U47C , what is its reported self-cleavage? 0.415

Requested field: self-cleavage. Item: C14G G40U 0.0594

Could you tell me which self-cleavage is on file for A16U C21U ? 0.122

Look up self-cleavage for this variant: C49A C57G 0.898
